Biological target: T1, human CLEC-1A expressed on the cell membrane (human, UniProt Q8NC01 1-280)
T1 construct: Endogenous on human U266 myeloma cells, on monocyte-derived TGFb-DC and macrophages; on CHO cells after transduction with a Clec-1 expressing lentivirus; also called U266 CLEC1; CLEC-1A on U266 cells
T1 sequence: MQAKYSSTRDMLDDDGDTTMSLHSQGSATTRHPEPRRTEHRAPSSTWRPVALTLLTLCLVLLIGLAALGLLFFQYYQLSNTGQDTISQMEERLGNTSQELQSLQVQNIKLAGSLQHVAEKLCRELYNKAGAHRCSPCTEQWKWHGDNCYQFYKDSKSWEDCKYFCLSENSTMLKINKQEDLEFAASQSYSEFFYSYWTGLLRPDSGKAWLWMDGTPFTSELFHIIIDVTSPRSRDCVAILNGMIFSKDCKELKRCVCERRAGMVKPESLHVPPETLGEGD
Experiment: flow cytometry on U266 cells; printed as ED50, read-out Mean
Measured EC50 by item
Please respond with the number in µg/mL and leave the unit unwritten.

Answered cases to consult:
So what's the measured EC50 for this one? murine anti-hCLEC1 antibody 11H11-G11 (antibody, V domains shown, Mouse hybridoma antibody) VH: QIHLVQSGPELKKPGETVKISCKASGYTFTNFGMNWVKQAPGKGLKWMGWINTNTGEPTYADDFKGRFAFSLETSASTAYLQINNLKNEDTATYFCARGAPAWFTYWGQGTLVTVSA VL: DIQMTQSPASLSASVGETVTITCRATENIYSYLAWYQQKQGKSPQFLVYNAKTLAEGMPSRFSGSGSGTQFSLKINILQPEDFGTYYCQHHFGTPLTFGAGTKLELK 0.033

So what's the measured EC50 for this one? murine anti-hCLEC1 antibody 5D1-A5 (antibody, V domains shown, Mouse hybridoma antibody) VH: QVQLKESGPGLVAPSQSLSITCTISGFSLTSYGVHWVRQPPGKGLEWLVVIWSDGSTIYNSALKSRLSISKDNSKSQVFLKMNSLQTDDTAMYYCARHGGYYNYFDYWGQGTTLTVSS VL: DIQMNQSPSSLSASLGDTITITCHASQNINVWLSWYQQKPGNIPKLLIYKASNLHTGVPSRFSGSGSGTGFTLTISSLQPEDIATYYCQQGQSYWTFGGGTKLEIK 0.12

So what's the measured EC50 for this one? murine anti-hCLEC1 antibody 14H9-F3 (antibody, V domains shown, Mouse hybridoma antibody) VH: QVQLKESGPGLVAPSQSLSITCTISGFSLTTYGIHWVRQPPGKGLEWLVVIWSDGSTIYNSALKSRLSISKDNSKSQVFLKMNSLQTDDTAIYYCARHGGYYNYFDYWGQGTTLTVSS VL: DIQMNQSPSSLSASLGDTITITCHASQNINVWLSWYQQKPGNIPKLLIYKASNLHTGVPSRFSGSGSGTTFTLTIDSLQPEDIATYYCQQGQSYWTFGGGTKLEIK 0.072

Note: attention shifts to another entry.
So what's the measured EC50 for this one? murine anti-hCLEC1 antibody 10F4-H2 (antibody, V domains shown, Mouse hybridoma antibody) VH: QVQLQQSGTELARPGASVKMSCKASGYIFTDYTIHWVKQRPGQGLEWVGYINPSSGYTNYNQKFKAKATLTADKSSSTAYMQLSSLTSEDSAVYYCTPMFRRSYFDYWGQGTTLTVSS VL: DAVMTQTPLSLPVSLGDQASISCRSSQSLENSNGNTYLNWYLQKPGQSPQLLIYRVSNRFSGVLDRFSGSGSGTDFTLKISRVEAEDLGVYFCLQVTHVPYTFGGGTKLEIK 0.22
